Please respond with reported pIC50 for every item in the list.
study_target: IκBα-kinase complex (Homo sapiens, UniProt O14920+O15111)
Construct: endogenous in cells; host or cells: HeLa S3 cell extract, S100 fraction; ammonium sulfate precipitation and Superose-6 size exclusion
Sequence (O14920 whole entry): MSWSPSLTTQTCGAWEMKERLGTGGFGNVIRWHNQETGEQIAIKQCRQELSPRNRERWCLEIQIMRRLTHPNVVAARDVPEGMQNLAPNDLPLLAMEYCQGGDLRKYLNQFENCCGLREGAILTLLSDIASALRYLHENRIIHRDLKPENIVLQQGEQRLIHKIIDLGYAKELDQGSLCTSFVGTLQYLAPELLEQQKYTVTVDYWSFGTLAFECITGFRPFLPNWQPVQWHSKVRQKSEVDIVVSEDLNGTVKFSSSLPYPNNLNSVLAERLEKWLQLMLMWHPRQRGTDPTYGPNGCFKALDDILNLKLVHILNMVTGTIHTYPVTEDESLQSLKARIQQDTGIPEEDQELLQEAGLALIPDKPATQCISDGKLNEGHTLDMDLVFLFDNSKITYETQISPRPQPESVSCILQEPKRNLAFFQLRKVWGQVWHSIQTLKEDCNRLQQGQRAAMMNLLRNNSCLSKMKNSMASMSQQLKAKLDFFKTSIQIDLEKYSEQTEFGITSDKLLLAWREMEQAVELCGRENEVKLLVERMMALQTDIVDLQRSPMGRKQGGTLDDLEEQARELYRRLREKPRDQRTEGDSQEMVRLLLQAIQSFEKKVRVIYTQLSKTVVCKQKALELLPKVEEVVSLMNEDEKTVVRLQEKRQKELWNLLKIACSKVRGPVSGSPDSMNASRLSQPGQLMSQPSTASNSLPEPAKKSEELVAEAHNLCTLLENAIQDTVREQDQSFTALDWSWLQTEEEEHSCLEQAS
Sequence (O15111 whole entry): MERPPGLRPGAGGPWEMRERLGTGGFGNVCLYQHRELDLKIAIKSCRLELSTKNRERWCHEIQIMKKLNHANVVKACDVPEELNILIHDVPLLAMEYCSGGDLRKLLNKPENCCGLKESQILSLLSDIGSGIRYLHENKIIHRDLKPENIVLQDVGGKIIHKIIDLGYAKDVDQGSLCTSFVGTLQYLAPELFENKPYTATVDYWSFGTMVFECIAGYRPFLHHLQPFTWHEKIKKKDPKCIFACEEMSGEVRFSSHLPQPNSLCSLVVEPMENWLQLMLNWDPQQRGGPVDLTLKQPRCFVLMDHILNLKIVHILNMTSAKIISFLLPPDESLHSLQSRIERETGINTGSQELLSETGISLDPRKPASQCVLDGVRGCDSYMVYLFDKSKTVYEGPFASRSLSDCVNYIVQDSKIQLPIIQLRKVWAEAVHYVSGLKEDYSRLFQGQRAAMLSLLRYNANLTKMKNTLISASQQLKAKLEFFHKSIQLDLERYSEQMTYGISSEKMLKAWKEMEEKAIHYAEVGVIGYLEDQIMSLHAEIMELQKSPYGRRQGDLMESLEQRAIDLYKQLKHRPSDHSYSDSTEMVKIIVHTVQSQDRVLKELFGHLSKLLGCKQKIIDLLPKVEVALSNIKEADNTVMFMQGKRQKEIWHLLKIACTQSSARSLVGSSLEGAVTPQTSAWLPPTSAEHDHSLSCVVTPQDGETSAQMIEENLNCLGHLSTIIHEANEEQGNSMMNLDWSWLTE
Sequence (Q9Y6K9 whole entry partner): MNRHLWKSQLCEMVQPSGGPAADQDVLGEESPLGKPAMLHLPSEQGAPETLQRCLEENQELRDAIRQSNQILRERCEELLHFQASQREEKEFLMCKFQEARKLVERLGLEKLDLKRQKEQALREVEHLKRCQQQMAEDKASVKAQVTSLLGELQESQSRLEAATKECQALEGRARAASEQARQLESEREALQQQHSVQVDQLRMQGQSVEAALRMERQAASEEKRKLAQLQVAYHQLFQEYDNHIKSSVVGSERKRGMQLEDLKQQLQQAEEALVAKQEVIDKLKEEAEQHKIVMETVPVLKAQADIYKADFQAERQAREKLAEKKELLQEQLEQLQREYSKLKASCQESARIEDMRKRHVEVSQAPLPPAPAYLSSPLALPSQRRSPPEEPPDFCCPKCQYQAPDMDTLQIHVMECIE
assay_overview: IkB-Kinase ELISA
Format: biochemical
condition: activated IκBα kinase complex from HeLa S3 cell extracts; ELISA; read-out: IkB-kinase IC50
Give bare numbers, as −log10 of the molar value.

{"smiles_representation": "O=C(Cc1ccccn1)Nc1cc(Cl)cc2c1[nH]c1cnccc12", "pIC50": 5.68}

Hey, can you go through the list below and give me pIC50 for every item?
1. Cc1cc(C(=O)Nc2cc(Cl)cc3c2[nH]c2cnccc23)n(C)n1
2. O=C(Nc1cc(Cl)cc2c1[nH]c1cnccc12)c1ccc2c(c1)OCO2
3. Clc1cc2c([nH]c3cnccc32)c(Cl)c1OC1CCCC1
4. O=C(Nc1cc(Cl)cc2c1[nH]c1cnccc12)c1cnccn1

Result:
6.22
6.24
6.40
6.55

###

study_target: IκBα-kinase complex (Homo sapiens, UniProt O14920+O15111)
Construct: endogenous in cells; host or cells: HeLa S3 cell extract, S100 fraction; ammonium sulfate precipitation and Superose-6 size exclusion
assay_overview: IkB-Kinase ELISA
Type: biochemical
condition: activated IκBα kinase complex from HeLa S3 cell extracts; ELISA; read-out: IkB-kinase IC50
pIC50: −log10 of the molar value.
Lab note: compare pIC50 against 6. Equal or greater, write True. Smaller, write False.

Query: Test whether the molecule Cn1nc(C(C)(C)C)cc1C(=O)Nc1cc(Cl)cc2c1[nH]c1cnccc12 [Example 78] records pIC50 of 6 or higher.
Result: False

Query: Test whether the molecule Brc1ccc2[nH]c3cnccc3c2c1 [Example 1] records pIC50 of 6 or higher.
Result: True

Query: Test whether the molecule O=C(Nc1cc(Cl)cc2c1[nH]c1cnccc12)c1ccno1 [Example 79] records pIC50 of 6 or higher.
Result: True

Query: Test whether the molecule CC(=O)Oc1c(Cl)cc2c([nH]c3cnccc32)c1Cl [Example 101] records pIC50 of 6 or higher.
Result: False

Query: Test whether the molecule Fc1ccc2c(c1)[nH]c1cnccc12 [Example 31] records pIC50 of 6 or higher.
Result: False

Query: Test whether the molecule Clc1cc2c([nH]c3cnccc32)c(Cl)c1OCc1ccccc1 [Example 81] records pIC50 of 6 or higher.
Result: True

Query: Test whether the molecule Cc1nccc2c1[nH]c1cc(OCc3ccccc3)ccc12 [Example 26] records pIC50 of 6 or higher.
Result: False

Query: Test whether the molecule N#Cc1ccc(C(=O)Nc2cc(Cl)cc3c2[nH]c2cnccc23)cc1 [Example 73] records pIC50 of 6 or higher.
Result: True

###

Please respond with reported IC50 for every item in the list.
study_target: IκBα-kinase complex (Homo sapiens, UniProt O14920+O15111)
Construct: endogenous in cells; host or cells: HeLa S3 cell extract, S100 fraction; ammonium sulfate precipitation and Superose-6 size exclusion
assay_overview: IkB-Kinase ELISA;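 note: substrate phosphopeptide captured on Protein-A plates, detected with Streptavidin-HRP and TMB absorbance at 450 nm, activity read from a synthetic phosphopeptide standard curve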
Assay type: biochemical
condition: activated IκBα kinase complex from HeLa S3 cell extracts; ELISA; read-out: IkB-kinase IC50
Counter-ions that a name gives are not always drawn.

{"molecule": "Clc1cc2c([nH]c3cnccc32)c(Cl)c1OCC1CC1 [Example 65]", "study_target": "IκBα-kinase complex (Homo sapiens, UniProt O14920+O15111)", "measured_quantity": "IC50", "result": "100 nM"}
{"molecule": "COCOc1c(Cl)cc2c([nH]c3cnccc32)c1Cl", "study_target": "IκBα-kinase complex (Homo sapiens, UniProt O14920+O15111)", "measured_quantity": "IC50", "result": "360 nM"}
{"molecule": "O=C(Nc1cc(Cl)cc2c1[nH]c1cnccc12)C1CCCC1", "study_target": "IκBα-kinase complex (Homo sapiens, UniProt O14920+O15111)", "measured_quantity": "IC50", "result": "670 nM"}
{"molecule": "COc1c(Cl)cc2c([nH]c3cnccc32)c1NC(=O)c1cccnc1", "study_target": "IκBα-kinase complex (Homo sapiens, UniProt O14920+O15111)", "measured_quantity": "IC50", "result": "160 nM"}
{"molecule": "O=S(=O)(Nc1cc(Cl)cc2c1[nH]c1cnccc12)c1ccc(F)cc1", "study_target": "IκBα-kinase complex (Homo sapiens, UniProt O14920+O15111)", "measured_quantity": "IC50", "result": "930 nM"}
{"molecule": "O=C(Nc1cc(Cl)cc2c1[nH]c1cnccc12)c1ccccc1F [Example 61]", "study_target": "IκBα-kinase complex (Homo sapiens, UniProt O14920+O15111)", "measured_quantity": "IC50", "result": "940 nM"}

Hey, can you go through the list below and give me IC50 for every item?
1. O=C1CC[C@H](C(=O)Nc2cc(Cl)cc3c2[nH]c2cnccc23)N1
2. COCC(=O)Nc1cc(Cl)cc2c1[nH]c1cnccc12 [Example 51, trifluoroacetate]
3. N#Cc1cccc(C(=O)Nc2cc(Cl)cc3c2[nH]c2cnccc23)c1

Result:
1: 90 nM; 2: 600 nM; 3: 580 nM
